# study-system: recombinant SNM1A (698-1040) (Homo sapiens)
# Construct: SNM1A (698-1040) was expressed and purified as described by Allerston et al; made in house
# Sequence (Q6PJP8 698-1040): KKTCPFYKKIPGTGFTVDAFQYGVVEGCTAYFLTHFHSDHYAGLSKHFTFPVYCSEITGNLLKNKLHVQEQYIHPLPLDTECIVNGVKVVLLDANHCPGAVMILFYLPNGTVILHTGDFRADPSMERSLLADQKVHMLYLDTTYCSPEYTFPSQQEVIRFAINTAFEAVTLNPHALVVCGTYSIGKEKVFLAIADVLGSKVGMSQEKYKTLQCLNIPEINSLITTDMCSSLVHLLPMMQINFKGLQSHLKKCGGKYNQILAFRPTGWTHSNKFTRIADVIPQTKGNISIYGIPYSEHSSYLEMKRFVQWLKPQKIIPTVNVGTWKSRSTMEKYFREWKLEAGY
# protocol-description: Gel-based SNM1A inhibition assay (digestion of fluorescent 21-mer oligonucleotide substrate, denaturing PAGE)
# Format: biochemical
# experimental-conditions: concentration gradient 1 mM to 1 µM, approximately 3-fold dilutions; SNM1A 2.5 nM, substrate 80 nM, 5 min preincubation, 60 min at 37 °C
Recorded Lowest Inhibitory Concentration for the following compounds

compound: Cc1cn([C@H]2C[C@H](O)[C@@H](CC(C(=O)O)C(=O)NO)O2)c(=O)[nH]c1=O (stereo partly drawn)
study-system: recombinant SNM1A (698-1040) (Homo sapiens)
Lowest Inhibitory Concentration (µM): 33

compound: Cc1cn([C@H]2C[C@H](NC(=O)CC(=O)O)[C@@H](CO)O2)c(=O)[nH]c1=O
study-system: recombinant SNM1A (698-1040) (Homo sapiens)
Lowest Inhibitory Concentration (µM): 333

compound: Cc1cn(C2CC(O)C(CC(C(=O)NO)C(=O)NC3CC(n4cc(C)c(=O)[nH]c4=O)OC3CO)O2)c(=O)[nH]c1=O (stereo not drawn)
study-system: recombinant SNM1A (698-1040) (Homo sapiens)
Lowest Inhibitory Concentration (µM): 333

compound: COC(=O)C(C[C@H]1O[C@@H](n2cc(C)c(=O)[nH]c2=O)C[C@@H]1O)C(=O)O (stereo partly drawn)
study-system: recombinant SNM1A (698-1040) (Homo sapiens)
Lowest Inhibitory Concentration (µM): 333

compound: Cc1cn([C@H]2C[C@H](O)[C@@H](CC(C(=O)O)C(=O)O)O2)c(=O)[nH]c1=O
study-system: recombinant SNM1A (698-1040) (Homo sapiens)
Lowest Inhibitory Concentration (µM): 333

compound: Cc1cn([C@H]2C[C@H](NC(=O)CC(=O)NO)[C@@H](CO)O2)c(=O)[nH]c1=O
study-system: recombinant SNM1A (698-1040) (Homo sapiens)
Lowest Inhibitory Concentration (µM): 333

compound: Cc1cn(C2CC(O)C(CC(C(=O)O)C(=O)NC3CC(n4cc(C)c(=O)[nH]c4=O)OC3CO)O2)c(=O)[nH]c1=O (stereo not drawn)
study-system: recombinant SNM1A (698-1040) (Homo sapiens)
Lowest Inhibitory Concentration (µM): 333

compound: Cc1cn([C@H]2C[C@H](O)[C@@H](CNC(=O)CC(=O)NO)O2)c(=O)[nH]c1=O
study-system: recombinant SNM1A (698-1040) (Homo sapiens)
Lowest Inhibitory Concentration (µM): 333

compound: COC(=O)C(CC1OC(n2cc(C)c(=O)[nH]c2=O)CC1O)C(=O)NC1CC(n2cc(C)c(=O)[nH]c2=O)OC1CO (stereo not drawn)
study-system: recombinant SNM1A (698-1040) (Homo sapiens)
Lowest Inhibitory Concentration (µM): 1000
